System: thiopental-induced anesthesia
Assay type: in vivo, mouse (ddY-strain male)
Settings: i.p.; 60 mg/10 ml/kg, 20 minutes before i.v. thiopental sodium; control 1.00
Method: ddY-strain male mice of 5 weeks of age were employed. Thiopental sodium was dissolved in physiological saline, and the test substance was prepared with a suspending agent of 0.5% Tween 80 (trade name, produced by Atlas Powder Co.; polyoxyethylene (20) sorbitan mono-oleate) and 1% gum tragacanth in the ratio of 1:2.5. […] The time immediately from intravenous administration to the righting reflex was measured, and this was defined as the anesthetic time. […]
observed.property: The ratio of the elongation on the anesthetic time induced by thiopental

compound: Clc1ccc(C(OC2CCN(CCNc3nc4ccccc4s3)CC2)c2ccccn2)cc1 (stereo not drawn)
measured.number: 1.05

compound: c1ccc(C(c2ccccc2)N2CCN(CCCSc3nc4ccccc4s3)CC2)cc1
measured.number: 1.25

compound: CCOC(=O)CCCN1CCC(OC(c2ccc(Cl)cc2)c2ccccn2)CC1 (stereo not drawn)
measured.number: 1.04
